This collection of values is drawn from PubChem BioAssay.

Assay text: H69AR cell proliferation blockers – human, duplicate replicates, primary screen (AID 580);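 further: 100% = mean luminescence of untreated wells and 0% = no signal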
Assay context: H69AR lung tumor cells viability, ATP luminescence, 72 h; at 10 µM; stronger effect = lower value
Quantity name: viability (%)
Give the quantity in %, number only.

// query Can you share its viability? I mean this molecule: CC1(C)C(c2ccccc2)=NC(c2cccnc2)N1O (stereo unspecified)
// result 95.3

// query Can you share its viability? I mean this molecule: `Cc1cc(OCC(=O)O)c2c3c(c(=O)oc2c1)CCCC3`
// result 84.8

// query Can you share its viability? I mean this molecule: `O=C(c1ccc2nc3ccc(Cl)cc3c(=O)n2c1)N1CCC2(CC1)OCCO2`
// result 96.7

// query Can you share its viability? I mean this molecule: COC(=O)C1C2c3ccccc3OC1(C)N=c1s/c(=C/c3cnn(C)c3C)c(=O)n12 (stereo unspecified)
// result 91.8

// query Can you share its viability? I mean this molecule: COc1ccc(C2SCC(=O)Nc3c2c(=O)[nH]n3C2CCCCCC2)cc1OC (stereo unspecified)
// result 91.3

// query Can you share its viability? I mean this molecule: `c1ccc(Cn2ccnc2)cc1`
// result 93.5
